All figures here come from PubChem BioAssay (NCI).

Exercise: state measured TGI for each of the compounds provided.
System: KM12 colon
procedure-details: NCI tumour cell line growth inhibition, 48 h
Numeric answer only, unit µM assumed.

Recorded TGI (compound O=C(CCN1CCCC1)c1ccc(Oc2ccc(F)cc2)cc1 ): 90.9

Recorded TGI (compound CSc1cc(C(C)(C)C)ccc1C(O)c1ccc(C(C)(C)C)cc1SC ): 25.8

Recorded TGI (compound O=C(Nc1cc2cc([N+](=O)[O-])ccc2oc1=O)c1cccs1 ): 72.9

Recorded TGI (compound O=c1[nH]c(=O)n(C2OC(CO)C(O)C2O)cc1F (stereo not given) ): 51.9

Recorded TGI (compound CN(C)CCNC(=O)c1cccc2c1nc(-c1ccncc1)c1ccccc12 ): 25.6

Recorded TGI (compound C=C1C(=O)O[C@H]2[C@H]1CC/C(COC(=O)N[C@H](Cc1c[nH]c3ccccc13)C(=O)OC)=C\CC[C@@]1(C)O[C@@H]21 ): 28.6

Recorded TGI (compound Cc1cc(OCc2nn(CN3CCN(C)CC3)c(=S)n2/N=C/c2ccc(F)cc2)ccc1Cl ): 37.5

Recorded TGI (compound COc1cc(-c2ccccc2)cn2c1nc1ccccc12 ): 36.1

Recorded TGI (compound CCOP(=O)(OCC)C(NC(c1ccccc1)c1ccccc1)c1ccc(C(C)C)cc1 (stereo not given) ): 17.2
